- Species: Bos taurus
- Experiment summary: Displacement of [3H]colchicine from bovine brain tubulin at 5 uM after 10 mins
Measurement kind: inhibition (%)
Supply the numeric figure in %, leaving out any unit text.

Suppose we examine the compound COc1cc2c(cc1OS(N)(=O)=O)CC[C@@H]1[C@@H]2CC[C@]2(C)[C@@H](OS(N)(=O)=O)CC[C@@H]12 ; what inhibition value has been reported?
28

Suppose we examine the compound COc1cc2c(cc1OS(N)(=O)=O)CC[C@@H]1[C@@H]2CC[C@]2(C)C(=O)CC[C@@H]12 ; what inhibition value has been reported?
22

Suppose we examine the compound CCc1cc2c(cc1OS(N)(=O)=O)CC[C@@H]1[C@@H]2CC[C@]2(C)[C@@H](OS(C)(=O)=O)CC[C@@H]12 ; what inhibition value has been reported?
49

Suppose we examine the compound CCc1cc2c(cc1OS(N)(=O)=O)CC[C@@H]1[C@@H]2CC[C@@]2(C)[C@H]1CC[C@@H]2S(C)(=O)=O ; what inhibition value has been reported?
28

Suppose we examine the compound Cc1cc2c(cc1OS(N)(=O)=O)CC[C@@H]1[C@@H]2CC[C@]2(C)C(OS(N)(=O)=O)CC[C@@H]12 (stereo partly specified) ; what inhibition value has been reported?
46

Suppose we examine the compound CCc1cc2c(cc1OS(N)(=O)=O)CC[C@@H]1[C@@H]2CC[C@]2(C)[C@@H](OS(N)(=O)=O)CC[C@@H]12 ; what inhibition value has been reported?
45

====

- System: SN12C
- Experiment summary: Antiproliferative activity against human SN12C cells after 96 hrs by WST-1 assay
- Assay type: functional
Measurement kind: GI50 (µM)
Supply the numeric figure in µM, leaving out any unit text.

{"Compound": "COc1cc2c(cc1OS(N)(=O)=O)CC[C@@H]1[C@@H]2CC[C@]2(C)[C@@H](NS(C)(=O)=O)CC[C@@H]12", "Observed measurement": 23.4}

Suppose we examine the compound CCc1cc2c(cc1O)CC[C@@H]1[C@@H]2CC[C@]2(C)[C@@H](CN(C)C)CC[C@@H]12 ; what GI50 value has been reported?
43.7

Suppose we examine the compound CCc1cc2c(cc1OS(N)(=O)=O)CC[C@@H]1[C@@H]2CC[C@]2(C)[C@@H](CN(C)C)CC[C@@H]12 ; what GI50 value has been reported?
18.2

Suppose we examine the compound COc1cc2c(cc1OCc1ccccc1)CC[C@@H]1[C@@H]2CC[C@]2(C)[C@@H](OS(C)(=O)=O)CC[C@@H]12 ; what GI50 value has been reported?
19.9

Suppose we examine the compound CCc1cc2c(cc1OS(N)(=O)=O)CC[C@@H]1[C@@H]2CC[C@]2(C)[C@@H](C[N+](=O)[O-])CC[C@@H]12 ; what GI50 value has been reported?
0.066

Suppose we examine the compound COc1cc2c(cc1O)CC[C@@H]1[C@@H]2CC[C@]2(C)[C@@H](O)CC[C@@H]12 [2-METHOXYESTRADIOL] ; what GI50 value has been reported?
0.95

Suppose we examine the compound COc1cc2c(cc1OS(N)(=O)=O)CC[C@@H]1[C@@H]2CC[C@]2(C)[C@@H](OS(C)(=O)=O)CC[C@@H]12 ; what GI50 value has been reported?
3.1

Suppose we examine the compound CCc1cc2c(cc1OS(N)(=O)=O)CC[C@@H]1[C@@H]2CC[C@]2(C)[C@@H](OS(N)(=O)=O)CC[C@@H]12 ; what GI50 value has been reported?
0.028

Suppose we examine the compound CCc1cc2c(cc1OS(N)(=O)=O)CC[C@@H]1[C@@H]2CC[C@]2(C)[C@@H](NS(C)(=O)=O)CC[C@@H]12 ; what GI50 value has been reported?
6.92

Hello, the source for this data is ChEMBL document CHEMBL1156957, in case you need it.
